Test: in vivo
Details: Sprague-Dawley, rat, plasma, inhaled, 2 mg/kg
valueType: concentration at 48 h (ng/mL)
Express the result in ng/mL but write the number alone.

I would be grateful if you could share the reported concentration at 48 h for CC[C@H](C)C[C@H](C)CCCCCCCCC(=O)N[C@H]1C[C@@H](O)[C@@H](NCCN)NC(=O)[C@@H]2[C@@H](O)CCN2C(=O)[C@H]([C@H](O)CCN)NC(=O)[C@H]([C@H](O)[C@@H](O)c2ccc(O)cc2)NC(=O)[C@@H]2C[C@@H](O)CN2C(=O)[C@H]([C@@H](C)O)NC1=O [Caspofungin, caspofungin] .
80
